# protocol_notes: chemical genetic growth profiling, strain panel (AID 1159580);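 note: tested at 20 µM; growth read once vehicle control cultures reached saturation at 30 °C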
# conditions: S. cerevisiae deletion strains, growth OD, locus YDR392W, strain spt3, active compounds read low
About 2,000 (36%) of roughly 5,500 compounds were called active. Not shown: some 18% with an inconclusive outcome. The list shows a part of the results.
Exam item: assign YES to entries whose normalized growth is below 0.9 and NO to entries at or above 0.9. Note that a value of exactly 0.9 receives NO.

Please check: normalized growth for CC(CCC(=O)O)[C@H]1CCC2C3C(C[C@H](O)[C@@]21C)[C@@]1(C)CC[C@@H](O)C[C@H]1C[C@H]3O (stereo not given in full) , strictly under 0.9 or not? NO

I'd appreciate it if you could check whether CC(CCC(=O)O)[C@H]1CCC2C3CC[C@@H]4C[C@H](O)CC[C@]4(C)C3CC[C@@]21C (stereo not given in full) has normalized growth smaller than 0.9. YES

Would you kindly verify if normalized growth of COC(=O)CCC(C)C1CCC2C3CC[C@@H]4C[C@H](O)CC[C@]4(C)C3C[C@H](O)[C@]12C (stereo not given in full) is strictly less than 0.9? YES

Say whether its normalized growth is strictly beneath 0.9. Entry: CC(C)CCCC(C)C1CCC2C3CC[C@H]4CCCC[C@]4(C)C3CC[C@]12C (stereo not given in full) NO

Please check: normalized growth for COC(=O)CCC(C)[C@H]1CCC2C3C(C[C@H](O)[C@@]21C)[C@@]1(C)CC[C@@H](O)C[C@H]1C[C@H]3O (stereo not given in full) , strictly under 0.9 or not? NO

Record CC(CCC(=O)O)[C@H]1CCC2C3CC[C@@H]4CCCC[C@]4(C)C3CC[C@@]21C (stereo not given in full) : is its normalized growth strictly below 0.9? NO

Given "COc1cc([C@H]2Oc3cc([C@H]4Oc5cc(O)cc(O)c5C(=O)[C@@H]4O)ccc3O[C@@H]2CO)ccc1O" , is recorded normalized growth strictly lower than 0.9? NO

These entries and their values trace back to PubChem BioAssay AID1159580.
